The measurements presented in this section are drawn from ChEMBL document CHEMBL5154885.

- TEST SYSTEM: Death-associated protein kinase 3 (Homo sapiens)
- Sequence (O43293 whole entry): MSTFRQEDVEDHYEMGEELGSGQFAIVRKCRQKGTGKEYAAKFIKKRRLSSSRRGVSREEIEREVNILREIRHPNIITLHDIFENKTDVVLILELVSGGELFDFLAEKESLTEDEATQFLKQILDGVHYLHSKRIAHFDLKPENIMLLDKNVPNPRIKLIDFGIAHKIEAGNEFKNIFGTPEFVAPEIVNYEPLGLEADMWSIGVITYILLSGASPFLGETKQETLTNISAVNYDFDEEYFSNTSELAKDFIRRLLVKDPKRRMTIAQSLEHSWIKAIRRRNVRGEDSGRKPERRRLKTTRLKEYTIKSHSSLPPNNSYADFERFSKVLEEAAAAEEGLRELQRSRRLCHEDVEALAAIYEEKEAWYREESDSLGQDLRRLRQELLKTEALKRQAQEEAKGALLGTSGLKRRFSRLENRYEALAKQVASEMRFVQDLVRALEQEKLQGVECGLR

{"RECORD SMILES": "COc1ncc2cc3cnccc3c([N+](=O)[O-])c2n1", "IC50 / nM": 578}

---

- TEST SYSTEM: Serine/threonine-protein kinase pim-1 (Homo sapiens, UniProt P11309)
- Sequence (P11309 whole entry): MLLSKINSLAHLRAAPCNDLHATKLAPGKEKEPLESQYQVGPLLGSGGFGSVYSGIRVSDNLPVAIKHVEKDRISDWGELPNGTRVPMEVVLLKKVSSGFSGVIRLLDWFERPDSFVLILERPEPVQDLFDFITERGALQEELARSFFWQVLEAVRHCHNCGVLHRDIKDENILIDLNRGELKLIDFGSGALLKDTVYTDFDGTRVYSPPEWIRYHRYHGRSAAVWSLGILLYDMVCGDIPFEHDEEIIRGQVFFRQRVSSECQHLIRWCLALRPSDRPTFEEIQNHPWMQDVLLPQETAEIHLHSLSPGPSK
- TEST: Inhibition of recombinant human PIM1 expressed in bacterial expression system using histone H1 as substrate measured after 30 mins in presence of ATP by ADP-Glo assay

{"RECORD SMILES": "CCCNc1ccc2ncc(-c3ccc4[nH]ncc4c3)n2n1", "RESULT UNIT": "nM", "IC50": 29}

---

- TEST SYSTEM: UniProt:P00519
- Sequence (P00519 whole entry): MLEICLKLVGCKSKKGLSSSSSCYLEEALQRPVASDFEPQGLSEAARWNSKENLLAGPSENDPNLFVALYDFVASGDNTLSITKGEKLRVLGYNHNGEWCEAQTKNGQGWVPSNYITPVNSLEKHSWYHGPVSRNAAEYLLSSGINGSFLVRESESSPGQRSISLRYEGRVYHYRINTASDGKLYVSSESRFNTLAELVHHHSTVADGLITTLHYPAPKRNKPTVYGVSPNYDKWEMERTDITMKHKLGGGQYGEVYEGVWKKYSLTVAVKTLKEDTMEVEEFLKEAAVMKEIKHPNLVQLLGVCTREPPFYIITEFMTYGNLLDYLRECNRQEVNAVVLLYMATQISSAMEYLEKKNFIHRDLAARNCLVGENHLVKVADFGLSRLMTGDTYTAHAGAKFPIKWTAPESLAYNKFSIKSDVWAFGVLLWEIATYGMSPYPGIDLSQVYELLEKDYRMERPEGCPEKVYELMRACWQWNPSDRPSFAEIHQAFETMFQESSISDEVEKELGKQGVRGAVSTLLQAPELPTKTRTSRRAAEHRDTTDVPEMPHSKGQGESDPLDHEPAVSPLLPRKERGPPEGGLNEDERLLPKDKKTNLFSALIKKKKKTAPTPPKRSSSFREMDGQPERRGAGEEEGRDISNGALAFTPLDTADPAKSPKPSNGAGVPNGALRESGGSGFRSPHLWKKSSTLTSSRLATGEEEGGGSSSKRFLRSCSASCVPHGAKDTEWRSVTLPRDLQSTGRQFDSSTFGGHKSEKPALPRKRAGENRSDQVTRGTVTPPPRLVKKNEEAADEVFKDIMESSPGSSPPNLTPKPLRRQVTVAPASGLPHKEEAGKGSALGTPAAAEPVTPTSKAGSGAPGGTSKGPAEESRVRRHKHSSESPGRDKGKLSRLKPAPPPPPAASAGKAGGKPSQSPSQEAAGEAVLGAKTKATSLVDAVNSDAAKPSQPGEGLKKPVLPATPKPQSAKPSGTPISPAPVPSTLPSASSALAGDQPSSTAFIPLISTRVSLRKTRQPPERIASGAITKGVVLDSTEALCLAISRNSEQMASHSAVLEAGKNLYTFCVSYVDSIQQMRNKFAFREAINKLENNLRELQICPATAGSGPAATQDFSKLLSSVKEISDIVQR
- TEST: Inhibition of human recombinant ABL1 expressed in baculovirus sf9 insect cells using EAIYAAPFAKKK as substrate measured after 30 mins in presence of ATP by ADP-Glo assay
pIC50: −log10 of the molar value.

{"RECORD SMILES": "CCCNc1ccc2ncc(-c3ccc4[nH]ncc4c3)n2n1", "pIC50": 6.79}

---

# Lookup of reported IC50 keyed by entry
- TEST SYSTEM: Glycogen synthase kinase-3 beta (Homo sapiens, UniProt P49841)
- Sequence (P49841 whole entry): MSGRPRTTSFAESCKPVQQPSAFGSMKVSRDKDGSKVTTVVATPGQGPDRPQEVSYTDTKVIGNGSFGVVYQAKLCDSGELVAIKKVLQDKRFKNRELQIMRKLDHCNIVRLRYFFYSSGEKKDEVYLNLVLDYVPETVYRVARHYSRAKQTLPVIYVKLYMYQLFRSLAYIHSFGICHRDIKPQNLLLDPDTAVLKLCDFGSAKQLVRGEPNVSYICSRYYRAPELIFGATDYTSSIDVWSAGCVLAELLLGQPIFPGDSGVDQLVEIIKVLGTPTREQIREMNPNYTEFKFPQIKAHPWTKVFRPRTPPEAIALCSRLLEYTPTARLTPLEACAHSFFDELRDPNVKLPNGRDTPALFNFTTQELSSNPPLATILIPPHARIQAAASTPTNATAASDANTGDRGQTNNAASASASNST
- TEST: Inhibition of human recombinant GSK3beta expressed in baculovirus in Sf9 insect cells using YRRAAVPPSPSLSRHSSPHQSpEDEEE as substrate measured after 30 mins by ADP-Glo kinase assay

{"RECORD SMILES": "CCCNc1ccc2ncc(-c3ccc4[nH]ncc4c3)n2n1", "IC50 (nM)": 53}
{"RECORD SMILES": "Nc1ccc2cc3cnccc3c([N+](=O)[O-])c2n1", "IC50 (nM)": 418}

---

- TEST SYSTEM: Serine/threonine-protein kinase PLK2 (Homo sapiens, UniProt Q9NYY3)
- Sequence (Q9NYY3 whole entry): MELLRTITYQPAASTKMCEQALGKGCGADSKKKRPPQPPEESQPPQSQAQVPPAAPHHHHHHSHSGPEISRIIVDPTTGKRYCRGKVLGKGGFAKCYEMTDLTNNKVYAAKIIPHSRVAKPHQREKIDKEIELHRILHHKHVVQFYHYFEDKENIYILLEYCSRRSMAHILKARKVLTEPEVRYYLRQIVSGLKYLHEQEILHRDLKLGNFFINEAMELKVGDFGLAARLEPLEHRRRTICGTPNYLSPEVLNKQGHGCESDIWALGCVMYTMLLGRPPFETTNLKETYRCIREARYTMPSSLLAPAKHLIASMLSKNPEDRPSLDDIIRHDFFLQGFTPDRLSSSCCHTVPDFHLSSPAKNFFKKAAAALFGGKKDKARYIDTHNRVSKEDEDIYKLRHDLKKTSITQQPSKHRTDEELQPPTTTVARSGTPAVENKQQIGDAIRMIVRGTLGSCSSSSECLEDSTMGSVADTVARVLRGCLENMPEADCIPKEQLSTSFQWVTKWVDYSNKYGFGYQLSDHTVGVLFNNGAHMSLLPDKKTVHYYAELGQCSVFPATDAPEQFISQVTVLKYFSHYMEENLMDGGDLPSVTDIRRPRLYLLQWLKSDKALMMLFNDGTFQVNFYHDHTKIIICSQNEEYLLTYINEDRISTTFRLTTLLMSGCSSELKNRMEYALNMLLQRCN
pIC50: −log10 of the molar value.

{"RECORD SMILES": "COc1ncc2cc3cnccc3c([N+](=O)[O-])c2n1", "pIC50": 6.90}

---

Endpoint: pIC50. System: Serine/threonine-protein kinase haspin (Homo sapiens, UniProt Q8TF76). Items follow.
Sequence (Q8TF76 whole entry): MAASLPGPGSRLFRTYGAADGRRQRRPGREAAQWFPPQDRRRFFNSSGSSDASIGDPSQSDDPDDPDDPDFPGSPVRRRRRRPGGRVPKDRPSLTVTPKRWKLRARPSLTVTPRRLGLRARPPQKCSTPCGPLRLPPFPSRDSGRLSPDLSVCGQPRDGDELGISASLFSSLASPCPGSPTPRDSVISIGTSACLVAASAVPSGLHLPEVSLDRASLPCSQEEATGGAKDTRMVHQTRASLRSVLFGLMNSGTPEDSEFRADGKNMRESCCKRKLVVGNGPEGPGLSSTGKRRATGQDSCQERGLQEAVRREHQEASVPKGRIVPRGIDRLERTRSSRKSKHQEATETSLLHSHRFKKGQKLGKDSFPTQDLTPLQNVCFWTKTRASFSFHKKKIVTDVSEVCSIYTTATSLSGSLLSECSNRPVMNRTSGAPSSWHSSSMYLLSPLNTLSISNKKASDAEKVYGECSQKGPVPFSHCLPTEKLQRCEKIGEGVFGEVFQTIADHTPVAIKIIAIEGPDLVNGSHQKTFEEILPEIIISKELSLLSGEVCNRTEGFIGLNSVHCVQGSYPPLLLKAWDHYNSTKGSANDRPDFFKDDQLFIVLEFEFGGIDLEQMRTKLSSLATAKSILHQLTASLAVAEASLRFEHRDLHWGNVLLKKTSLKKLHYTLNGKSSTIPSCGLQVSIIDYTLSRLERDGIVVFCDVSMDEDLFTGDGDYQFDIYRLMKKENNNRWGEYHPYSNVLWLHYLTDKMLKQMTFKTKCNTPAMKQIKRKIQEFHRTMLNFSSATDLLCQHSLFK
pIC50: −log10 of the molar value.
READOUT LABEL: pIC50

{"COMPOUND": "CCC(C)Sc1ncc2cc3cnccc3c(N)c2n1 (configuration not stated)", "READOUT LABEL": "pIC50", "TEST RESULT": 6.69}
{"COMPOUND": "CCCSc1ncc2cc3cnccc3c([N+](=O)[O-])c2n1", "READOUT LABEL": "pIC50", "TEST RESULT": 6.77}
{"COMPOUND": "CSc1ncc2cc3cnccc3c(N)c2n1", "READOUT LABEL": "pIC50", "TEST RESULT": 7.92}
{"COMPOUND": "CSc1ncc2cc3cnccc3c([N+](=O)[O-])c2n1", "READOUT LABEL": "pIC50", "TEST RESULT": 6.92}
{"COMPOUND": "COc1ncc2cc3cnccc3c(N)c2n1", "READOUT LABEL": "pIC50", "TEST RESULT": 6.80}
{"COMPOUND": "CCCSc1ncc2cc3cnccc3c(N)c2n1", "READOUT LABEL": "pIC50", "TEST RESULT": 7.19}
{"COMPOUND": "Nc1ccc2cc3cnccc3c([N+](=O)[O-])c2n1", "READOUT LABEL": "pIC50", "TEST RESULT": 8.52}
